target: NAMPT (human, recombinant, C-terminally His-tagged) (Homo sapiens, UniProt P43490); assay: Time-Resolved Fluorescence Resonance Energy Transfer (TR-FRET) Binding Assay of NAMPT; conditions: without substrates; 6.8 nM NAMPT, 200 nM probe, 3 hours equilibration
pIC50: −log10 of the molar value.
measurement-name: pIC50

(Q) What pIC50 value was documented for this compound, CC(C)(C)OC(=O)N1CCC(Oc2ccc(NC(=O)NCc3ccn4ccnc4c3)cc2)CC1 [Example 366] ?
(A) 6.84

(Q) What pIC50 value was documented for this compound, COCCC(=O)N(CC1CCOC1)c1ncc(C(=O)NCc2ccc3nccn3c2)s1 (stereo not drawn) [Example 139] ?
(A) 6.24

(Q) What pIC50 value was documented for this compound, O=C(NCc1ccn2ccnc2c1)c1ccc(C2CCN(C(=O)c3ccc(F)cc3)CC2)cc1 [Example 508] ?
(A) 6.59

(Q) What pIC50 value was documented for this compound, O=C(CC1CCOC1)Nc1ccc(C(=O)NCc2ccc3ncc(Cl)n3c2)cc1 (stereo not drawn) [Example 398] ?
(A) 6.68

(a) O=C(NCc1ccn2ccnc2c1)Nc1ccc(C2CCN(C(=O)C3CCOCC3)C2)cc1 (stereo not drawn) [Example 389]
(b) O=C(NCc1ccn2ccnc2c1)c1ccc(C2CCN(C(=O)c3ccccc3F)C2)s1 (stereo not drawn) [Example 776]
(c) CC(C)OC[C@H]1CN(c2ncc(C(=O)NCc3ccn4ccnc4c3)s2)C(=O)O1 [Example 256]
(d) O=C(Cc1ccc(NC(=O)CC2CCCC2)cc1)Nc1ccc2nccn2c1 [Example 76]
(e) O=C(CCC1CCCC1)Nc1ccc(C(=O)NCc2ccn3ccnc3c2)cc1 [Example 212]
(Q) # rank_down: sort by pIC50, max first Use the labels to give the ranking in the order requested.
(A) b, e, c, a, d
(b: 7.67, e: 7.35, c: 6.90, a: 6.23, d: 6.00)

====

molecular target: UniProt:P43490
pIC50: −log10 of the molar value.
measurement-name: pIC50

(Q) What pIC50 value was documented for this compound, Cn1cc(CC(=O)N(C[C@H]2CCCO2)c2ncc(C(=O)NCc3ccn4ccnc4c3)s2)cn1 [Example 202] ?
(A) 9.45

(Q) What pIC50 value was documented for this compound, Cc1ncsc1CCC(=O)N(CC1CCCO1)c1ncc(C(=O)NCc2ccc3nccn3c2)s1 (centres unmarked) [Example 131] ?
(A) 8.78

(Q) What pIC50 value was documented for this compound, O=C(Nc1ccc(NC(=O)C2CCOCC2)cc1)Nc1ccc2nccn2c1 [Example 46] ?
(A) 9.50

(I) CC(C)(CO)NC(=O)c1ccc(NC(=O)Nc2ccc3nccn3c2)cc1 [Example 6]
(II) CC[C@H](C)C(=O)N1CC[C@@H](Oc2ccc(C(=O)NCc3ccn4ccnc4c3)cc2)C1 [Example 495]
(Q) Recorded pIC50 values differ for I and II ; which one is higher? Answer with the label corresponding to your selection.
(A) II
(II: 9.40, I: 9.02)

====

pIC50: −log10 of the molar value.
Quick record of pIC50 values for NAMPT (Homo sapiens, UniProt P43490).
measurement-name: pIC50

Please review the entries below; each comes with its answer.
(Q) Tell me reported pIC50 for CC(C)(C)C(=O)N1CC(c2ccc(C(=O)NCc3ccn4ccnc4c3)cc2)C1 [Example 633] , tested with NAMPT (Homo sapiens, UniProt P43490).
Sequence (P43490 whole entry): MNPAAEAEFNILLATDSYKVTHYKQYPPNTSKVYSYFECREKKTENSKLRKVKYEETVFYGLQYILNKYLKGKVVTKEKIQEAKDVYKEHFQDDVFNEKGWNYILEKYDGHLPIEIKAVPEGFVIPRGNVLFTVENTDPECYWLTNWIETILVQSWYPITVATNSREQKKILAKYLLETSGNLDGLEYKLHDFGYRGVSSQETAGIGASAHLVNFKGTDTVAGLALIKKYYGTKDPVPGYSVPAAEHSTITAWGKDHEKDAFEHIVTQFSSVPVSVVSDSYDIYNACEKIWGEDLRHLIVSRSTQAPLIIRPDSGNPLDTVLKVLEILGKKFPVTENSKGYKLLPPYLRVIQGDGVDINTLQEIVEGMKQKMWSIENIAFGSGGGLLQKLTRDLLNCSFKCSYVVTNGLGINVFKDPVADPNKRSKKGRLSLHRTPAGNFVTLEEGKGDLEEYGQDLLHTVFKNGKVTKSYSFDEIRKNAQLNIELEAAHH
(A) 9.15

(Q) Tell me reported pIC50 for Cc1ccc(C(=O)N2CCC(c3ccc(C(=O)NCc4ccn5ccnc5c4)cc3)C2)cc1 (stereo not drawn) [Example 600] , tested with NAMPT (Homo sapiens, UniProt P43490).
(A) 9.77

(Q) Tell me reported pIC50 for CC(C)(O)C(=O)N1CC[C@@H](Oc2ccc(NC(=O)NCc3ccn4ccnc4c3)cc2)C1 [Example 334] , tested with NAMPT (Homo sapiens, UniProt P43490).
(A) 9.46

(Q) Tell me reported pIC50 for O=C(NCc1ccn2ccnc2c1)c1ccc(C2CCN(C(=O)c3nccs3)C2)cc1 (stereo not drawn) [Example 613] , tested with NAMPT (Homo sapiens, UniProt P43490).
(A) 9.04

(I) O=C(NCc1ccn2ccnc2c1)c1cnc(C2=CCN(C(=O)C3CCOCC3)CC2)s1 [Example 319]
(II) O=C(CN1CCOCC1)Nc1ccc(C(=O)NCc2ccc3nccn3c2)cc1 [Example 80]
(III) O=C(CC(F)(F)F)NC1(c2ccc(C(=O)NCc3ccn4ccnc4c3)s2)CCC1 [Example 472]
(Q) Put the compounds in ascending order of pIC50. Use the labels to give the ranking in the order requested.
(A) II, III, I
